Target: T1, human PD-1 expressed on cells (CHO TREX human PD1 cell line, full-length human PD-1 sequence) (human, UniProt Q15116 21-288)
T1 construct: Also used for human PD-1 on Jurkat reporter cells, on PathHunter cells and on PHA-stimulated human CD4+ T cells; also called CHO human PD1 cells; CHO human PD-1 cells
T1 sequence (Q15116 21-288): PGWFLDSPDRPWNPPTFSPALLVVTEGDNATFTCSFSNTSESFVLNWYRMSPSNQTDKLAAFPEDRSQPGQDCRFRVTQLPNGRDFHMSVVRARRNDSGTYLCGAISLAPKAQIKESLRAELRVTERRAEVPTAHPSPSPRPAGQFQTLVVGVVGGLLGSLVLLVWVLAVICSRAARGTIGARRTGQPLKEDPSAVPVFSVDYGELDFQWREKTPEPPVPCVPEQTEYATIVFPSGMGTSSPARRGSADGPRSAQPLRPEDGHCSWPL
Test: worded summary of the screens
measurement name: binding result

1.29a (VHH) VHH: EVQLVESGGGLVQPGRSLRLSCAASGFTFDDYAMHWVRQAPGKDLEWVSGISWNSGSMGYADSVKGRFTISRDNAKNSLYLQMNSLRAEDTALYYCVREKGPGLTGSTADYYGLDVWGQGTMVTVSS ... binds
1.2b (VHH) VHH: EVQLLESGGGLVKPGGSLRLSCAASGFTFSDYTMTWMRQAPGKGLEWVSYISTGGSIKYYTDSVKGRFTISRDNAKNSLYLQMNSLRADDTAVYYCAREAPLRLGESPHDAFDIWGQGTMVTVSS ... binds
